molecular target: CXCR4 (Homo sapiens); construct: expressed in transfected cells; host or cells: PC3 (human prostate cancer) cells stably transduced with CXCR4; assay: Saturation binding assay in PC3-CXCR4 cells; conditions: value ± SD
Sequence (P61073 whole entry): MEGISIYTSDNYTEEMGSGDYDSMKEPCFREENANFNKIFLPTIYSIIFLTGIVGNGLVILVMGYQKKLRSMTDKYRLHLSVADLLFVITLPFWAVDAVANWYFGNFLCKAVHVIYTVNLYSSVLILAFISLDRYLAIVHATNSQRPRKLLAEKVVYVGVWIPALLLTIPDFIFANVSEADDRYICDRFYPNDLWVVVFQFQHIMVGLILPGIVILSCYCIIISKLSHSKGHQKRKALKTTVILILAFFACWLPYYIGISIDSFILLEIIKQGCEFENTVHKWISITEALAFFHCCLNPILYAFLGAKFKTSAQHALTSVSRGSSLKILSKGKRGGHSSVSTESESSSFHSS
Each entry below carries its reported Hill Slope, Saturation Binding Experiment.
observation_type: Hill Slope, Saturation Binding Experiment

{"molecule": "Fc1cccc(CNCc2ccc(CN3CCCNCCNCCCNCC3)cc2)n1", "experimental_value": 1.06}
{"molecule": "FCCn1cc(-c2cc(CNCc3ccccn3)ccc2CN2CCCNCCNCCCNCC2)nn1", "experimental_value": 1.12}
{"molecule": "FCCn1cc(-c2cc(CN3CCCNCCNCCCNCC3)ccc2CN2CCCNCCNCCCNCC2)nn1", "experimental_value": 2.01}
{"molecule": "FCCn1cc(NCc2ccc(CN3CCCNCCNCCCNCC3)cc2)nn1", "experimental_value": 0.98}
{"molecule": "FCCn1cc(CCNCc2ccc(CN3CCCNCCNCCCNCC3)cc2)nn1", "experimental_value": 0.93}
{"molecule": "FCCn1cc(-c2cc(CN3CCCNCCNCCCNCC3)ccc2CNCc2ccccn2)nn1", "experimental_value": 1.05}
{"molecule": "FCCn1cc(CNCc2ccc(CN3CCCNCCNCCCNCC3)cc2)nn1", "experimental_value": 1.03}

---

system: PC3-CXCR4 xenograft tumors; experiment: Biodistribution in mice bearing bilateral PC3-WT/PC3-CXCR4 xenograft tumors; format: in vivo, BALB/c mice; conditions: 1 h p.i.
Each entry below carries its reported Large Intestine tissue activity.

{"molecule": "FCCn1cc(-c2cc(CNCc3ccccn3)ccc2CN2CCCNCCNCCCNCC2)nn1", "assay_system": "PC3-CXCR4 xenograft tumors", "readout_unit": "%ID/g", "Large Intestine tissue activity": 0.23}
{"molecule": "FCCn1cc(-c2cc(CN3CCCNCCNCCCNCC3)ccc2CNCc2ccccn2)nn1", "assay_system": "PC3-CXCR4 xenograft tumors", "readout_unit": "%ID/g", "Large Intestine tissue activity": 0.29}
{"molecule": "FCCn1cc(CCNCc2ccc(CN3CCCNCCNCCCNCC3)cc2)nn1", "assay_system": "PC3-CXCR4 xenograft tumors", "readout_unit": "%ID/g", "Large Intestine tissue activity": 0.43}
{"molecule": "FCCn1cc(CNCc2ccc(CN3CCCNCCNCCCNCC3)cc2)nn1", "assay_system": "PC3-CXCR4 xenograft tumors", "readout_unit": "%ID/g", "Large Intestine tissue activity": 0.20}

---

assay: Biodistribution in mice bearing bilateral PC3-WT/PC3-CXCR4 xenograft tumors; type: in vivo, BALB/c mice; settings: male, BALB/c athymic nude, mouse, PC3-CXCR4 tumor and kidneys, iv, total radioactivity, 1 h p.i.; read-out: PC3-CXCR4 Tumor-to-Tissue Ratio Kidneys
Non-standard residues stand in square brackets, D forms with d. Residues, ends and D or L forms follow the SMILES beside them. Groups on a side chain read outwards from the residue. *: point of attachment. DOTA = O=C(O)CN1CCN(CC(=O)O)CCN(CC(=O)*)CCN(CC(=O)O)CC1; 2Nal = N[C@@H](Cc1ccc2ccccc2c1)C(=O)O; dNMeOrn = CN[C@H](CCCN)C(=O)O; 4Amb = NCc1ccc(C(=O)O)cc1
observation_type: tissue to tissue ratio at 1 h

{"compound": "CN1C(=O)[C@@H](Cc2ccc(O)cc2)NC(=O)CNC(=O)[C@H](Cc2ccc3ccccc3c2)NC(=O)[C@H](CCCNC(=N)N)NC(=O)[C@H]1CCCNC(=O)c1ccc(CNC(=O)CN2CCN(CC(=O)O)CCN(CC(=O)O)CCN(CC(=O)O)CC2)cc1 (68Ga complex, metal not drawn) [Pentixafor, reference compound] (cyclo([dY][dNMeOrn]([4Amb-DOTA])R[2Nal]G))", "experimental_value": 4}

---

Each entry below carries its reported Stomach tissue activity.
system: PC3-CXCR4 xenograft tumors; experiment: Biodistribution in mice bearing bilateral PC3-WT/PC3-CXCR4 xenograft tumors; format: in vivo, BALB/c mice; conditions: 1 h p.i.

{"molecule": "FCCn1cc(-c2cc(CNCc3ccccn3)ccc2CN2CCCNCCNCCCNCC2)nn1", "Stomach tissue activity (%ID/g)": 0.17}
{"molecule": "FCCn1cc(-c2cc(CN3CCCNCCNCCCNCC3)ccc2CNCc2ccccn2)nn1", "Stomach tissue activity (%ID/g)": 0.16}
{"molecule": "FCCn1cc(CNCc2ccc(CN3CCCNCCNCCCNCC3)cc2)nn1", "Stomach tissue activity (%ID/g)": 0.17}
{"molecule": "FCCn1cc(CCNCc2ccc(CN3CCCNCCNCCCNCC3)cc2)nn1", "Stomach tissue activity (%ID/g)": 0.14}

---

tested on: PC3-CXCR4 xenograft tumors; assay: Biodistribution in mice bearing bilateral PC3-WT/PC3-CXCR4 xenograft tumors; assay type: in vivo, BALB/c mice; conditions: 1 h p.i.
Each entry below carries its reported Liver tissue activity.

{"molecule": "FCCn1cc(-c2cc(CN3CCCNCCNCCCNCC3)ccc2CNCc2ccccn2)nn1", "Liver tissue activity [%ID/g]": 19.14}
{"molecule": "FCCn1cc(CCNCc2ccc(CN3CCCNCCNCCCNCC3)cc2)nn1", "Liver tissue activity [%ID/g]": 4.36}
{"molecule": "FCCn1cc(CNCc2ccc(CN3CCCNCCNCCCNCC3)cc2)nn1", "Liver tissue activity [%ID/g]": 6.59}
{"molecule": "FCCn1cc(-c2cc(CNCc3ccccn3)ccc2CN2CCCNCCNCCCNCC2)nn1", "Liver tissue activity [%ID/g]": 3.69}

---

Test: Biodistribution in mice bearing bilateral PC3-WT/PC3-CXCR4 xenograft tumors
Format: in vivo, BALB/c mice
Settings: male, BALB/c athymic nude, mouse, PC3-CXCR4 tumor and blood, iv, total radioactivity, 2 h p.i.; read-out: PC3-CXCR4 Tumor-to-Tissue Ratio Blood
Description: All animal studies were approved by the Institutional Animal Care and Use Committee of Weill Cornell Medicine (Protocol Number: 2015-0066) and were undertaken in accordance with the guidelines set forth by the USPHS Policy on Humane Care and Use of Laboratory Animals. Animals were housed under standard conditions in approved facilities with 12 h light/dark cycles. Food and water was provided ad libitum throughout the course of the studies. […]
Non-standard residues stand in square brackets, D forms with d. Residues, ends and D or L forms follow the SMILES beside them. Groups on a side chain read outwards from the residue. *: point of attachment. DOTA = O=C(O)CN1CCN(CC(=O)O)CCN(CC(=O)*)CCN(CC(=O)O)CC1; 2Nal = N[C@@H](Cc1ccc2ccccc2c1)C(=O)O; dNMeOrn = CN[C@H](CCCN)C(=O)O; 4Amb = NCc1ccc(C(=O)O)cc1

{"compound": "CN1C(=O)[C@@H](Cc2ccc(O)cc2)NC(=O)CNC(=O)[C@H](Cc2ccc3ccccc3c2)NC(=O)[C@H](CCCNC(=N)N)NC(=O)[C@H]1CCCNC(=O)c1ccc(CNC(=O)CN2CCN(CC(=O)O)CCN(CC(=O)O)CCN(CC(=O)O)CC2)cc1 (68Ga complex, metal not drawn) [Pentixafor, reference compound] (cyclo([dY][dNMeOrn]([4Amb-DOTA])R[2Nal]G))", "tissue to tissue ratio at 2 h": 31.1}

---

test system: PC3-CXCR4 xenograft tumors; assay: Biodistribution in mice bearing bilateral PC3-WT/PC3-CXCR4 xenograft tumors; assay type: in vivo, BALB/c mice; conditions: 1 h p.i.
observation_type: Lungs tissue activity (%ID/g)

{"molecule": "FCCn1cc(-c2cc(CN3CCCNCCNCCCNCC3)ccc2CNCc2ccccn2)nn1", "readout_unit": "%ID/g", "experimental_value": 1.01}
{"molecule": "FCCn1cc(-c2cc(CNCc3ccccn3)ccc2CN2CCCNCCNCCCNCC2)nn1", "readout_unit": "%ID/g", "experimental_value": 0.60}
{"molecule": "FCCn1cc(CCNCc2ccc(CN3CCCNCCNCCCNCC3)cc2)nn1", "readout_unit": "%ID/g", "experimental_value": 0.50}
{"molecule": "FCCn1cc(CNCc2ccc(CN3CCCNCCNCCCNCC3)cc2)nn1", "readout_unit": "%ID/g", "experimental_value": 0.48}

---

system: PC3-CXCR4 xenograft tumors; experiment: Biodistribution in mice bearing bilateral PC3-WT/PC3-CXCR4 xenograft tumors; format: in vivo, BALB/c mice; settings: 1 h p.i.
Each entry below carries its reported Spleen tissue activity.
observation_type: Spleen tissue activity (%ID/g)

{"molecule": "FCCn1cc(-c2cc(CN3CCCNCCNCCCNCC3)ccc2CNCc2ccccn2)nn1 [RPS-534]", "experimental_value": 2.49}
{"molecule": "FCCn1cc(CNCc2ccc(CN3CCCNCCNCCCNCC3)cc2)nn1 [RPS-547]", "experimental_value": 0.53}
{"molecule": "FCCn1cc(CCNCc2ccc(CN3CCCNCCNCCCNCC3)cc2)nn1 [RPS-552]", "experimental_value": 0.92}
{"molecule": "FCCn1cc(-c2cc(CNCc3ccccn3)ccc2CN2CCCNCCNCCCNCC2)nn1 [RPS-533]", "experimental_value": 0.52}
